method: viability loss in HepG2 hepatoma cells – cell-based, ATP luminescence, cherry-pick, activator set 2, cytotoxicity control, dose response (AID 1053143)
stated_conditions: CellTiter-Glo ATP luminescence, 72 h; series mostly up to 26 µM
Out of some 3,400 compounds screened, about 120 (3.5%) were called active. A selection follows. Results with a measured potency or affinity are listed apart.
readout: activity change, negative = cytotoxicity

CC(=O)c1ccc2c(c1)Cc1cc(C(C)=O)ccc1-2 | inactive
O=c1sc2ccccc2n1CCCOc1ccccc1 | inactive
Cc1ccc(Nc2cc(C)nc(-c3ccccc3O)n2)cc1 | inactive
Nc1c(C(=O)Nc2ccc3c(c2)OCCO3)nnn1Cc1cccc(Cl)c1 | inactive
COc1ccc2nc(-c3ccccc3)[nH]c2c1 | inactive
COC(=O)c1ccc(-c2nc3ccc(C)cc3o2)cc1 | inactive
Cc1ccc2oc(-c3cccc(NC(=O)c4ccccn4)c3)nc2c1 | inactive
COc1cccc(-c2nnc(-c3ccc4ccccc4c3)o2)c1 | inactive
Cc1cccc(-n2ncc3c(NCCCO)ncnc32)c1 | inactive
CCN(CC)C(=O)C1CCN(Cc2cn(C)nc2-c2ccc(Oc3ccccc3)cc2)CC1 | inactive
COc1ccc(-c2nnc(-c3ccc(C)cc3)o2)cc1 | inactive
Cc1ccc(Nc2ncccc2C(N)=O)cc1[N+](=O)[O-] | inactive
